Listed here: items and their measured solubility kinetic.
# EXPERIMENT_SUMMARY: SUPPLEMENTARY: Lyophilisation Solubility Assay (LYSA)
# Type: physicochemical
# CONDITION_INFO: read-out: Kinetic_solubility

{"COMPOUND_STRUCTURE": "O=C(O)c1cccc(-c2nc([C@H]3CCCCN3C(=O)COc3ccccc3)cs2)c1", "solubility kinetic": "> 511 µg/mL"}
{"COMPOUND_STRUCTURE": "COc1ccc(Cl)cc1S(=O)(=O)N1CCOc2ccc(C(=O)Nc3ccn(CC(=O)O)n3)cc21", "solubility kinetic": "> 675 µg/mL"}
{"COMPOUND_STRUCTURE": "Cc1cccc(S(=O)(=O)N2CCOc3ccc(C(=O)Nc4nc(CC(=O)O)cs4)cc32)c1", "solubility kinetic": "> 631 µg/mL"}

* * *

# EXPERIMENT_SUMMARY: SUPPLEMENTARY: PAMPA permeability assay
# Assay type: physicochemical
# CONDITION_INFO: read-out: Permeability
Listed here: items and their measured Papp.
MEASURED_PROPERTY: Papp (×10⁻⁶ cm/s)

{"COMPOUND_STRUCTURE": "O=C1CCN1c1cccc(-c2n[nH]c([C@H]3CCCCN3C(=O)COc3ccccc3)n2)c1", "MEASURED_PROPERTY": "Papp", "RECORDED_MEASUREMENT": 2}
{"COMPOUND_STRUCTURE": "Cc1cc(-c2n[nH]c([C@H]3CCCCN3C(=O)COc3ccccc3)n2)n(C)n1", "MEASURED_PROPERTY": "Papp", "RECORDED_MEASUREMENT": 5.2}
{"COMPOUND_STRUCTURE": "O=C(COc1ccccc1)N1CCCC[C@@H]1c1noc(-c2cccc3[nH]cnc23)n1", "MEASURED_PROPERTY": "Papp", "RECORDED_MEASUREMENT": 1.67}
{"COMPOUND_STRUCTURE": "COc1ccc(Cl)cc1S(=O)(=O)N1CCOc2c(F)cc(C(=O)Nc3ccc(C(=O)O)cc3)cc21", "MEASURED_PROPERTY": "Papp", "RECORDED_MEASUREMENT": 2.44}

* * *

# MEASURED_TARGET: Carnitine O-palmitoyltransferase 1, liver isoform (Homo sapiens, UniProt P50416)
# Sequence (P50416 whole entry, canonical isoform): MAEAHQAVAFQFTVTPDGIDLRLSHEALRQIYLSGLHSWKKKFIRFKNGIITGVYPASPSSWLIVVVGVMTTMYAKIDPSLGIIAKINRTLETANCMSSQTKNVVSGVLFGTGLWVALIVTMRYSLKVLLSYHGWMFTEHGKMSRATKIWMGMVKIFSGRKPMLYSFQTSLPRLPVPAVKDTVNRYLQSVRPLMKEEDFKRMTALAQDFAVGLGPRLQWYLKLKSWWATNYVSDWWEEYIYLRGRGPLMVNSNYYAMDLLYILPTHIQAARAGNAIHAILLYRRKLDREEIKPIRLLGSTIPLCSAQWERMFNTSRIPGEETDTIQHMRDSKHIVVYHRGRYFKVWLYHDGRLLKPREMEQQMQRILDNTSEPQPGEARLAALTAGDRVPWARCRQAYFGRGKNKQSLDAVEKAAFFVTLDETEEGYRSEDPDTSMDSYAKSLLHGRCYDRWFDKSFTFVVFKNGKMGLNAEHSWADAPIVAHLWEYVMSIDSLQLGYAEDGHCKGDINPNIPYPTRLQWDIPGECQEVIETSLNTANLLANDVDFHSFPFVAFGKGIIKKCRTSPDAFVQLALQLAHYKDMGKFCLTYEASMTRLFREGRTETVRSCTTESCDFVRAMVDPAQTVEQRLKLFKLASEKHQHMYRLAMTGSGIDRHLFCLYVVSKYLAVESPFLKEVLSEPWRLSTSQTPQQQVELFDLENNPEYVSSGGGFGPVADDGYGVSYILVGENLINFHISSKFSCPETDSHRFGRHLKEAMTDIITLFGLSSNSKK
# EXPERIMENT_SUMMARY: SUPPLEMENTARY: Inhibition of Carnitine palmitoyltransferase 1, liver isoform
Binned IC50; ranges: band A = under 40 nM, band B = from 40 nM up to 200 nM, band C = 200 nM and over

{"COMPOUND": "COc1ccc(Cl)cc1S(=O)(=O)c1c2cc(C(=O)Nc3ccccc3)ccc2nn1C", "GROUP_LABEL": "band B"}
{"COMPOUND": "COc1ccc(Cl)cc1S(=O)(=O)Nc1cc(C(=O)Nc2ccccc2)ccc1/C=C/C(=O)O", "GROUP_LABEL": "band B"}
{"COMPOUND": "COc1ccc(Cl)cc1S(=O)(=O)N1CC(C(=O)O)Oc2ccc(C(=O)Nc3ccccc3F)cc21 (centres undefined)", "GROUP_LABEL": "band C"}
{"COMPOUND": "COc1ccc(Cl)cc1S(=O)(=O)c1cn(CCCO)c2ccc(C(=O)Nc3ccccc3)cc12", "GROUP_LABEL": "band B"}
{"COMPOUND": "O=C([C@H]1CCCCN1C(=O)COc1ccccc1)N1CCN(c2ncccn2)CC1", "GROUP_LABEL": "band B"}
{"COMPOUND": "O=C(COc1ccccc1)N1CCCC[C@@H]1c1nc(-c2cccc(O)c2)no1", "GROUP_LABEL": "band A"}
{"COMPOUND": "Cc1cc(C)cc(S(=O)(=O)N2CC[S+]([O-])c3ccc(C(=O)Nc4ccc(C(=O)O)cc4)cc32)c1 (centres undefined)", "GROUP_LABEL": "band B"}
{"COMPOUND": "CCCN(c1cc(C(=O)Nc2nc(CC(=O)O)cs2)cc2c1OCO2)S(=O)(=O)c1cc(Cl)ccc1OC", "GROUP_LABEL": "band B"}
{"COMPOUND": "COc1ccc(Cl)cc1S(=O)(=O)N1CCSc2ccc(C(=O)Nc3nc(CC(=O)O)cs3)cc21", "GROUP_LABEL": "band A"}
{"COMPOUND": "COc1ccc(Cl)cc1CN1C(=O)CS(=O)(=O)c2ccc(C(=O)Nc3nc(CC(=O)O)cs3)cc21", "GROUP_LABEL": "band C"}
{"COMPOUND": "COc1ccc(Cl)cc1S(=O)(=O)N1CCCCc2ccc(C(=O)Nc3nc(CC(=O)O)cs3)cc21", "GROUP_LABEL": "band B"}
{"COMPOUND": "COc1ccc(Cl)cc1S(=O)(=O)N1CCc2ccc(C(=O)Nc3nc(CC(=O)O)cs3)cc21", "GROUP_LABEL": "band A"}
